Biological target: HLA-A*2402 (human)
Experiment: inhibition of 125I-labeled probe peptide binding to purified HLA-A*2402, gel filtration
List of pIC50 values.
// scale note: pIC50 = -log10(conc_M); give the bare number

Would you please look over these solved cases?
binder: TYLPTNASF (HER2/neu analog peptide) [Her2/neu.63.F9]
pIC50: 7.36

binder: SYGVTVWEL (HER2/neu peptide) [Her2/neu.907]
pIC50: 7.00

binder: AYSLTLQGL (HER2/neu peptide) [Her2/neu.440]
pIC50: 7.04

binder: RYTHQSDVF (HER2/neu analog peptide) [Her2/neu.898.Y2F9]
pIC50: 7.22

binder: AYPDSLPDF (HER2/neu analog peptide; label printed with a misprint (Herw/neu414)) [Herw/neu414.Y2F9]
pIC50: 7.62

The measured pIC50 associated with TYLPTNASL (HER2/neu peptide, 9-mer) [Her2/neu.63] reads 6.50

response.value for SYMPIWKF (HER2/neu peptide) [Her2/neu.609] (field: pIC50) = 7.42

binder LYISAWPDSF (HER2/neu analog peptide) [Her2/neu.410.F10] , pIC50 observed: 8.00
